These measurements were taken from the Immune Epitope Database (IEDB).

target: HLA-B*44:02; assay: IEDB peptide-MHC binding, purified MHC/competitive/radioactivity; filed as Kd, often an IC50 or EC50 that approximates it; bounds were set here for any values at or beyond the usual limits of such assays; conditions: source organism: SARS coronavirus Tor2
pKd: −log10 of the molar value.
Decide by pKd: equal to or exceeding 6 means yes (1), less means no (0).

> print(dat)
     seq.text  assigned.category
1   FELLNAPAT             no (0)
2  REEAIRHVRA             no (0)
3  IDFYLCFLAF            yes (1)
4   REAPAHVST             no (0)
5  FDAWFSQRGG             no (0)
6  AEVQIDRLIT             no (0)
7   RELHLSWEV            yes (1)

----------
target: HLA-A*31:01; experiment: IEDB peptide-MHC binding, purified MHC/competitive/radioactivity; filed as Kd, often an IC50 or EC50 that approximates it; bounds were set here for any values at or beyond the usual limits of such assays; conditions: source organism: Vaccinia virus WR
pKd: −log10 of the molar value.
quantity-kind: pKd

> print(dat)
     seq.text  sign.qualifier  measurement
1   QTVNICIFY               =         6.08
2  LMHPDFCKNR               =         7.77
3  IVQLPKRGVR               =         5.91
4   LQMAGVEVR               =         6.66
5   VTSLAIKNY               ≤         4.46

----------
molecular target: HLA-B*15:01; assay: IEDB peptide-MHC binding, purified MHC/competitive/radioactivity; filed as Kd, often an IC50 or EC50 that approximates it; bounds were set here for any values at or beyond the usual limits of such assays; conditions: source organism: Vaccinia virus WR
quantity-kind: Kd (nM)

> print(dat)
    seq.text  subject.of.test  endpoint.unit  measurement
1  LIIKLLLPG      HLA-B*15:01             nM         1120
2  LAIPATEFF      HLA-B*15:01             nM         4.16
3  EIKTGISSF      HLA-B*15:01             nM         89.9
4  VSYSTFCLG      HLA-B*15:01             nM          710
5  EISSTFNRF      HLA-B*15:01             nM          131
6  TVFIRFPHY      HLA-B*15:01             nM          123
7  LAPFNFLVF      HLA-B*15:01             nM          135
8  EQKAYVPAM      HLA-B*15:01             nM        0.773
9  EQYKTESFF      HLA-B*15:01             nM         6.57

----------
Kd: recorded values
molecular target: HLA-B*45:01; assay: IEDB peptide-MHC binding, purified MHC/competitive/radioactivity; filed as Kd, often an IC50 or EC50 that approximates it; bounds were set here for any values at or beyond the usual limits of such assays; details: source organism: SARS coronavirus Tor2
quantity-kind: Kd (nM)

> print(dat)
     seq.text  endpoint.unit  measurement
1  REEAIRHVRA             nM         57.6
2  DESASKSASV             nM         2780
3  KEEILGTVSW             nM         2810
4   FELLNAPAT             nM          392
5   REAPAHVST             nM          108
